Value source: patent WO2010064089A1

molecular target: human c-Met receptor on tumor cells (A549, NCI-H441, BxPC3) (human, UniProt P08581 25-1390); assay: cell-based or functional assay
Each entry below carries its recorded inhibition of HGF-induced proliferation of NCI-H441 cells (Figure 15).
Lab book: enter the figure in %, no units written.

>  <binder>
murine 224G11 Mab (antibody, mouse IgG1, V domains shown) VH: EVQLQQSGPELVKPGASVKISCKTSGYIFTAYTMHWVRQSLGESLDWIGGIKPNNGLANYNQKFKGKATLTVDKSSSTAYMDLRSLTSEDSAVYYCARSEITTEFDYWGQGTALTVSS VL: DIVLTQSPASLAVSLGQRATISCRASESVDSYANSFMHWYQQKPGQPPKLLIYRASNLESGIPARFSGSGSRTDFTLTINPVEADDVATYYCQQSKEDPLTFGSGTKLEMKR

>  <reported>
74

$$$$
>  <binder>
[224G11][TH7 Hz1] (antibody, V domains shown) VH: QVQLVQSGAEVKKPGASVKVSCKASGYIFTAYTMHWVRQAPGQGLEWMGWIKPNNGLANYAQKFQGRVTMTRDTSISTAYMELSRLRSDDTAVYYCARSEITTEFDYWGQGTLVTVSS VL: DIVLTQSPDSLAVSLGERATINCKSSESVDSYANSFMHWYQQKPGQPPKLLIYRASTRESGVPDRFSGSGSRTDFTLTISSLQAEDVAVYYCQQSKEDPLTFGGGTKVEIKR

>  <reported>
67

$$$$
>  <binder>
[224G11]chim (antibody, human IgG1, V domains shown) VH: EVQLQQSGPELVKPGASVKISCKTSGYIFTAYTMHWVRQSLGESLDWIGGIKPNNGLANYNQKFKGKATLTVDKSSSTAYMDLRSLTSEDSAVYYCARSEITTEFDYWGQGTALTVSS VL: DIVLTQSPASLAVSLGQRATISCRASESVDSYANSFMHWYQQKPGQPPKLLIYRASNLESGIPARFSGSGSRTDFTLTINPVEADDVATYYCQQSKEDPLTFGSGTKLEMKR

>  <reported>
33

$$$$

// next item, inhibition of HGF-induced proliferation of NCI-H441 cells (Figure 15) requested
Input line: Consider the binder [224G11][TH7 Hz3] (antibody, V domains shown) VH: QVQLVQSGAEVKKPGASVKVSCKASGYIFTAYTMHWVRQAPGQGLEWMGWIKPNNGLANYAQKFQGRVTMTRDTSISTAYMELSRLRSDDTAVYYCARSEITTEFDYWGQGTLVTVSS VL: DIVMTQSPDSLAVSLGERATINCKSSESVDSYANSFLHWYQQKPGQPPKLLIYRASTRESGVPDRFSGSGSGTDFTLTISSLQAEDVAVYYCQQSKEDPLTFGGGTKVEIKR and give its measured inhibition of HGF-induced proliferation of NCI-H441 cells (Figure 15).
Output line: 76
